# measured-target: His6-AspH315–758 (human aspartate/asparagine-β-hydroxylase, AspH) (Homo sapiens)
# Construct: N-Terminally His6-tagged human AspH315–758 (His6-AspH315–758) was produced in E. coli BL21 (DE3) cells; made in house; host or cells: E. coli BL21 (DE3), pET-28a(+) vector
# Sequence (Q12797 315-758): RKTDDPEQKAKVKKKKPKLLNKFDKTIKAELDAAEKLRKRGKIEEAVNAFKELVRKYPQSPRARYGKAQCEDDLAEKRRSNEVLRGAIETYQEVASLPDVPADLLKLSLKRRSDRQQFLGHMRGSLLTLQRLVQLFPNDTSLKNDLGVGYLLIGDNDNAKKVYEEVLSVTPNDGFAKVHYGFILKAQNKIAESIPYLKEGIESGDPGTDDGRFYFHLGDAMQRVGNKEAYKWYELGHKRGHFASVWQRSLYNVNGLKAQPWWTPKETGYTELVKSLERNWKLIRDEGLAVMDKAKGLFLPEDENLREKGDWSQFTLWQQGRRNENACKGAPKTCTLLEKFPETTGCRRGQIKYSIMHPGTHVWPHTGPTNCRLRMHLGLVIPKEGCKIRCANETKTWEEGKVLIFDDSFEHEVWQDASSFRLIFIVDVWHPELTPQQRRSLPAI
# assay-comment: SPE-MS AspH inhibition assay (LOPAC screen at fixed 20 μM and IC50 dose-response), hydroxylation of cyclic peptide hFX-CP101–119
# Assay type: biochemical
# condition-details: 20 µM
Answer each item with its documented % inhibition.
Give bare numbers, in %.

Past entries and their recorded results:
>>> assay_result("CC[C@]1(O)C[C@@H]2CN(CCc3c([nH]c4ccccc34)[C@@](C(=O)OC)(c3cc4c(cc3OC)N(C)[C@H]3[C@@](O)(C(=O)OC)[C@H](OC(C)=O)[C@]5(CC)C=CCN6CC[C@]43[C@@H]65)C2)C1.O=S(=O)(O)O [Vinblastine sulfate salt]")
-51.36
>>> assay_result("C=CCN1C[C@H](C)N([C@H](c2ccc(C(=O)N(CC)CC)cc2)c2cccc(OC)c2)C[C@H]1C")
-11.89
>>> assay_result("CC(=O)[C@H]1CC[C@H]2[C@@H]3CC=C4C[C@@H](OS(=O)(=O)[O-])CC[C@]4(C)[C@H]3CC[C@]12C.[Na+] [Pregnenolone sulfate sodium]")
7.19

Fill in % inhibition for each of the 2 compounds listed.
1. Br.COc1ccc(-c2ccc(=N)n(CCCC(=O)O)n2)cc1
2. C[C@H](CSC(=O)c1ccccc1)C(=O)N1C[C@@H](Sc2ccccc2)C[C@H]1C(=O)[O-].C[C@H](CSC(=O)c1ccccc1)C(=O)N1C[C@@H](Sc2ccccc2)C[C@H]1C(=O)[O-].[Ca+2]

Reply |
1: -6.50; 2: 11.63

Fill in % inhibition for each of the 2 compounds listed.
1. CN(CCCOc1ccc(Cc2ccccc2)cc1)CCC(=O)O.Cl [SC-57461A]
2. NCC(CP(=O)(O)O)c1ccc(Cl)cc1 (centres unmarked)

Reply |
1: -13.47; 2: 5.54
